# target.under.test: T1, recombinant hAng-2 (C-His, R&D Systems) (human, UniProt O15123 19-496)
# T1 construct: Bought protein; also called human Ang-2 protein; C-terminal histidine-tagged human Ang2 (R&D Systems); not shown: C-terminal His tag
# T1 sequence: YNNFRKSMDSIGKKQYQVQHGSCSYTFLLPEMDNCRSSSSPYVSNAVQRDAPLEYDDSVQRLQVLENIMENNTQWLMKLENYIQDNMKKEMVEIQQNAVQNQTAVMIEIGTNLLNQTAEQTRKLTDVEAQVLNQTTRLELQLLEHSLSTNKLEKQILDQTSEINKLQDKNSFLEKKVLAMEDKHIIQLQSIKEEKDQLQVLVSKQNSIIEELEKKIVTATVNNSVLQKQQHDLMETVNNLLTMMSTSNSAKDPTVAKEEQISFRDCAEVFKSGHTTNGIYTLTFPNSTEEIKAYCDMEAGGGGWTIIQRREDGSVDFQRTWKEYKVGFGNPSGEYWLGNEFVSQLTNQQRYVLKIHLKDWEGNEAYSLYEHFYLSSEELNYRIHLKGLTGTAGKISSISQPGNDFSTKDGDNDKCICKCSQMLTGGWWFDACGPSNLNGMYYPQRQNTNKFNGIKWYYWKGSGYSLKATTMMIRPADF
# test.name: SPR, BIAcore T100; hAng2 (C-His) captured by anti-His antibody on CM5, antibody as analyte
Could you mark each record 1 (yes) if its kon falls strictly under 500000 M⁻¹ s⁻¹, and 0 (no) if it equals or exceeds it?

{"binder": "h10D6-OPTI-42 (antibody, human IgG1, V domains shown) VH: QVQLQESGPGLVKPSETLSLTCAVSGYSITSDYAWNWIRQPPGKGLEWIGYINYSGNTDYNPSLKSRVTISVDTSKNQFSLKLSSVTAADTAVYYCARGNFEGAMDYWGQGTLVTVSS VL: DIQMTQSPSSLSASVGDRVTITCKASQSVSNDVHWYQQKPGKAPKLLIYYASNRYPGVPSRFSGSGSGTDFTLTISSLQPEDFATYYCQHDYSSPFTFGQGTKLEIK", "category": "1 (yes)"}
{"binder": "h10D6-OPTI-1 (antibody, human IgG1, V domains shown) VH: QVQLQESGPGLVKPSETLSLTCAVSGYSITSDYAWNWIRQPPGKGLEWMGKISYSGKTDYNPSLKSRSTISRDTSKNQFSLKLSSVTAADTAVYYCARGNFEGAMDYWGQGTLVTVSS VL: DIQMTQSPSSLSASVGDRVTITCKASQSVSNDVAWYQQKPGKAPKLLIYYASNRYPGVPSRFSGSGSGTDFTLTISSLQPEDFATYYCQQDYSSPWTFGQGTKLEIK", "category": "1 (yes)"}
{"binder": "h10D6-OPTI-17 (antibody, human IgG1, V domains shown) VH: EVQLVESGGGLVQPGGSLRLSCAASGYSITSDYAWNWVRQAPGKGLEWMGKINYAGNTDYNPSLKSRSTISRDTSKNTFYLQMNSLRAEDTAVYYCARGNFEGAMDYWGQGTLVTVSS VL: DIQMTQSPSSLSASVGDRVTITCKASQSVSNDVHWYQQKPGKAPKLLIYYASNRYPGVPSRFSGSGSGTDFTLTISSLQPEDFATYYCQQDYSSPWTFGQGTKLEIK", "category": "1 (yes)"}
{"binder": "h10D6-OPTI-55 (antibody, human IgG1, V domains shown) VH: QVQLQESGPGLVKPSETLSLTCAVSGYSITSDYAWNWIRQPPGKGLEWMGKINYAGNTDYNPSLKSRSTISRDTSKNQFSLKLSSVTAADTAVYYCARGNFEGAMDYWGQGTLVTVSS VL: DIQMTQSPSSLSASVGDRVTITCKASQSVSNDVHWYQQKPGKAPKLLIYYASNRYPGVPSRFSGSGSGTDFTLTISSLQPEDFATYYCQQDYSSPWTFGQGTKLEIK", "category": "0 (no)"}
{"binder": "h10D6-OPTI-63 (antibody, human IgG1, V domains shown) VH: QVQLQESGPGLVKPSETLSLTCAVSGYSITSDYAWNWIRQPPGKGLEWMGKISYSGKTDYNPSLKSRSTISRDTSKNQFSLKLSSVTAADTAVYYCARGNFEGAMDYWGQGTLVTVSS VL: DIQMTQSPSSLSASVGDRVTITCKASQFVSTDVHWYQQKPGKAPKLLIYYASNRYPGVPSRFSGSGSGTDFTLTISSLQPEDFATYYCQQDYSSPWTFGQGTKLEIK", "category": "0 (no)"}
{"binder": "10D6-HU2 (antibody, V domains shown, Humanized antibody; also called humanized antibody 10D6-HU2) VH: QVQLQESGPGLVKPSETLSLTCAVSGYSITSDYAWNWIRQPPGKGLEWMGYINYSGNTDYNPSLKSRSTISRDTSKNQFSLKLSSVTAADTAVYYCARGNFEGAMDYWGQGTLVTVSS VL: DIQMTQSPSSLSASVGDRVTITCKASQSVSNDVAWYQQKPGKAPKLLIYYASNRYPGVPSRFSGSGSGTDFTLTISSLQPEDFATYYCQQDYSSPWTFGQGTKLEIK", "category": "1 (yes)"}
{"binder": "h10D6-OPTI-43 (antibody, human IgG1, V domains shown) VH: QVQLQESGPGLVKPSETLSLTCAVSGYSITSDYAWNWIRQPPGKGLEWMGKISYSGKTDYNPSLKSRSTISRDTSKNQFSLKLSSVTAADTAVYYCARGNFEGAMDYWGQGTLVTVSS VL: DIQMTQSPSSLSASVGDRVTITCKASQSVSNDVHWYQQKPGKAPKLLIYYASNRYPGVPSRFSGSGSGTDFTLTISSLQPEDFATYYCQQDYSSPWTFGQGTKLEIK", "category": "0 (no)"}
{"binder": "h10D6-OPTI-3 (antibody, human IgG1, V domains shown) VH: EVQLVESGGGLVQPGGSLRLSCAASGYSITSDYAWNWVRQAPGKGLEWMGKISYSGKTDYNPSLKSRSTISRDTSKNTFYLQMNSLRAEDTAVYYCARGNFEGAMDYWGQGTLVTVSS VL: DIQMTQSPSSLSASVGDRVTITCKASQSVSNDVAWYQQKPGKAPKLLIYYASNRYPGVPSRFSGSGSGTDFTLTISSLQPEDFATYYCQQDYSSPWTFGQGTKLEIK", "category": "0 (no)"}
{"binder": "10D6-HU3 (antibody, V domains shown, Humanized antibody; also called humanized antibody 10D6-HU3) VH: EVQLVESGGGLVQPGGSLRLSCAASGYSITSDYAWNWVRQAPGKGLEWMGYINYSGNTDYNPSLKSRSTISRDTSKNTFYLQMNSLRAEDTAVYYCARGNFEGAMDYWGQGTLVTVSS VL: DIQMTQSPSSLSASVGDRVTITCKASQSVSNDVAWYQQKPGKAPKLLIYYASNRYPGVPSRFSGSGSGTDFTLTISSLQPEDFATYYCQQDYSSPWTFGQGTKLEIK", "category": "1 (yes)"}
{"binder": "h10D6-OPTI-4 (antibody, human IgG1, V domains shown) VH: EVQLVESGGGLVQPGGSLRLSCAASGYSITSDYAWNWVRQAPGKGLEWMGKINYAGNTDYNPSLKSRSTISRDTSKNTFYLQMNSLRAEDTAVYYCARGNFEGAMDYWGQGTLVTVSS VL: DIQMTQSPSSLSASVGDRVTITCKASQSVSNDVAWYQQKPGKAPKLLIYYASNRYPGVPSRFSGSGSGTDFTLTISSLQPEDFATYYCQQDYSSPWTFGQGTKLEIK", "category": "0 (no)"}

These data points were gathered from patent US20160053025A1.
